- test-system: HLA-A*02:01 (Homo sapiens, UniProt P04439, D140Y/D185E/D98H/E176V/E277Q/G131W/G231S/I119V/I121R/I166T/I218V/L300P/L318F/N151K/N90K/P208A/P217A/Q86G/Q94H/R138H/R169H/T345S)
- assay-overview: MHC binding assay (UV-ligand exchange, beta2m ELISA)
- condition-description: binding to HLA-A*02:01 ranged by peptide exchange yield (UV-ligand exchange, β2m ELISA)
measured-parameter: Peptide exchange

574 (YLLQEPPRTV; listed as Homo sapiens) [compound 574]	“++” (≥20% = ++)
517 (LLMPIPEGLTL; listed as Homo sapiens) [compound 517]	“+++” (≥50 = +++)
282 (LLADVVPTT; listed as Homo sapiens) [compound 282]	“+++” (≥50 = +++)
548 (ALWENPESGEL; listed as Homo sapiens) [compound 548]	“++” (≥20% = ++)
163 (ALDEMGDLLQL; listed as Homo sapiens) [compound 163]	“+++” (≥50 = +++)

Value of Peptide exchange reported for the substance 263 (LLVSNLDFGV; listed as Homo sapiens) [compound 263] is “+++” (≥50 = +++)

Value of Peptide exchange reported for the substance 162 (YQQAQVPSV; listed as Homo sapiens) [compound 162] is “+++” (≥50 = +++)

Value of Peptide exchange reported for the substance 594 (IMLKGDNITL; listed as Homo sapiens) [compound 594] is “+++” (≥50 = +++)

Value of Peptide exchange reported for the substance 151 (KILQQLVTL; listed as Homo sapiens) [compound 151] is “+++” (≥50 = +++)

###

- test-system: HLA-A*02:01 (Homo sapiens, UniProt P04439, D140Y/D185E/D98H/E176V/E277Q/G131W/G231S/I119V/I121R/I166T/I218V/L300P/L318F/N151K/N90K/P208A/P217A/Q86G/Q94H/R138H/R169H/T345S)
- assay-overview: MHC binding assay (UV-ligand exchange, beta2m ELISA)
- condition-description: binding to HLA-A*02:01 ranged by peptide exchange yield (UV-ligand exchange, β2m ELISA)
measured-parameter: Peptide exchange

Record excerpt, results attached:
207 (GLTSTNAEV; listed as Homo sapiens) [compound 207]	“++” (≥20% = ++)
336 (ILLTAIVQV; listed as Homo sapiens) [compound 336]	“+++” (≥50 = +++)
14 (AAYGGLNEKSFV; listed as Homo sapiens) [compound 14]	“+++” (≥50 = +++)
233 (VLSETLYEL; listed as Homo sapiens) [compound 233]	“++” (≥20% = ++)

For the next question, use this substance.
Value of Peptide exchange reported for the substance 391 (YVYPQRLNFV; listed as Homo sapiens) [compound 391] is “+++” (≥50 = +++)

###

- test-system: HLA-A*02:01 (Homo sapiens, UniProt P04439, D140Y/D185E/D98H/E176V/E277Q/G131W/G231S/I119V/I121R/I166T/I218V/L300P/L318F/N151K/N90K/P208A/P217A/Q86G/Q94H/R138H/R169H/T345S)
- assay-overview: MHC binding assay (UV-ligand exchange, beta2m ELISA)
- condition-description: binding to HLA-A*02:01 ranged by peptide exchange yield (UV-ligand exchange, β2m ELISA)
measured-parameter: Peptide exchange

Record excerpt, results attached:
330 (QLALKVEGV; listed as Homo sapiens) [compound 330]	“+++” (≥50 = +++)
55 (SLLDLETLSL; listed as Homo sapiens) [compound 55]	“++++” (≥75% = ++++)
409 (LLDAMNYHL; listed as Homo sapiens) [compound 409]	“++” (≥20% = ++)
597 (KLLEGQVIQL; listed as Homo sapiens) [compound 597]	“+++” (≥50 = +++)
365 (YVIDQGETDVYV; listed as Homo sapiens) [compound 365]	“+++” (≥50 = +++)

Value of Peptide exchange reported for the substance 542 (RVWDISTVSSV; listed as Homo sapiens) [compound 542] is “+++” (≥50 = +++)

Value of Peptide exchange reported for the substance 56 (KLYEGIPVLL; listed as Homo sapiens) [compound 56] is “++++” (≥75% = ++++)

Value of Peptide exchange reported for the substance 390 (ALFMKQIYL; listed as Homo sapiens) [compound 390] is “+++” (≥50 = +++)

Value of Peptide exchange reported for the substance 34 (ILVEADSLWVV; listed as Homo sapiens) [compound 34] is “+++” (≥50 = +++)

Value of Peptide exchange reported for the substance 384 (ILFANPNIFV; listed as Homo sapiens) [compound 384] is “+++” (≥50 = +++)

###

- test-system: HLA-A*02:01 (Homo sapiens, UniProt P04439, D140Y/D185E/D98H/E176V/E277Q/G131W/G231S/I119V/I121R/I166T/I218V/L300P/L318F/N151K/N90K/P208A/P217A/Q86G/Q94H/R138H/R169H/T345S)
- assay-overview: MHC binding assay (UV-ligand exchange, beta2m ELISA)
- condition-description: binding to HLA-A*02:01 ranged by peptide exchange yield (UV-ligand exchange, β2m ELISA)
measured-parameter: Peptide exchange

619 (ALQDRVPLA; listed as Homo sapiens) [compound 619]	“+++” (≥50 = +++)
380 (TLIEDEIATI; listed as Homo sapiens) [compound 380]	“++” (≥20% = ++)
76 (ILIDSIYKV; listed as Homo sapiens) [compound 76]	“+++” (≥50 = +++)
546 (VMIAGKVAVV; listed as Homo sapiens) [compound 546]	“+++” (≥50 = +++)

Value of Peptide exchange reported for the substance 99 (ALVSKGLATV; listed as Homo sapiens) [compound 99] is “++” (≥20% = ++)

###

- test-system: HLA-A*02:01 (Homo sapiens, UniProt P04439, D140Y/D185E/D98H/E176V/E277Q/G131W/G231S/I119V/I121R/I166T/I218V/L300P/L318F/N151K/N90K/P208A/P217A/Q86G/Q94H/R138H/R169H/T345S)
- assay-overview: MHC binding assay (UV-ligand exchange, beta2m ELISA)
- condition-description: binding to HLA-A*02:01 ranged by peptide exchange yield (UV-ligand exchange, β2m ELISA)
- Text: Candidate peptides for T cell based therapies according to the present invention were further tested for their MHC binding capacity (affinity). The individual peptide-MHC complexes were produced by UV-ligand exchange, where a UV-sensitive peptide is cleaved upon UV-irradiation, and exchanged with the peptide of interest as analyzed. Only peptide candidates that can effectively bind and stabilize the peptide-receptive MHC molecules prevent dissociation of the MHC complexes. […]
measured-parameter: Peptide exchange

Record excerpt, results attached:
513 (SLWPSPEQL; listed as Homo sapiens) [compound 513]	“++” (≥20% = ++)
11 (KIFEMLEGV; listed as Homo sapiens) [compound 11]	“+++” (≥50 = +++)
350 (ALLDVTHSELTV; listed as Homo sapiens) [compound 350]	“+++” (≥50 = +++)
456 (LLIGHLERV; listed as Homo sapiens) [compound 456]	“+++” (≥50 = +++)

Value of Peptide exchange reported for the substance 389 (LLADVTHLL; listed as Homo sapiens) [compound 389] is “++” (≥20% = ++)

###

- test-system: HLA-A*02:01 (Homo sapiens, UniProt P04439, D140Y/D185E/D98H/E176V/E277Q/G131W/G231S/I119V/I121R/I166T/I218V/L300P/L318F/N151K/N90K/P208A/P217A/Q86G/Q94H/R138H/R169H/T345S)
- assay-overview: MHC binding assay (UV-ligand exchange, beta2m ELISA)
- condition-description: binding to HLA-A*02:01 ranged by peptide exchange yield (UV-ligand exchange, β2m ELISA)
measured-parameter: Peptide exchange

Record excerpt, results attached:
478 (YLLHEKLNL; listed as Homo sapiens) [compound 478]	“+++” (≥50 = +++)
169 (NLPEYLPFV; listed as Homo sapiens) [compound 169]	“+++” (≥50 = +++)
72 (SLLELDGINL; listed as Homo sapiens) [compound 72]	“+++” (≥50 = +++)
190 (FLSSLTETI; listed as Homo sapiens) [compound 190]	“+++” (≥50 = +++)
553 (SLLNQDLHWSL; listed as Homo sapiens) [compound 553]	“++++” (≥75% = ++++)
129 (GLLDGGVDILL; listed as Homo sapiens) [compound 129]	“+++” (≥50 = +++)
395 (ALALGGIAVV; listed as Homo sapiens) [compound 395]	“++++” (≥75% = ++++)

Value of Peptide exchange reported for the substance 166 (YLNHLEPPV; listed as Homo sapiens) [compound 166] is “+++” (≥50 = +++)

The reported measurements were obtained from patent US10738094B2.
